Compiled literature IC50, tested on Mcl-1 (Homo sapiens).
OBSERVATION_TYPE: IC50 (nM)

# annotated cases, reported IC50 shown
[[record]]
structure = "Cc1nc2sc1CSc1cc(c3ccccc3c1)OCCCc1c(C(=O)O)n(C)c3c(c(Cl)ccc13)-c1c(nn3c1CCC3)CSC2"
observation_type = "IC50"
result_number = 11.3

[[record]]
structure = "Cn1nc2nc1CSc1cc(c3ccccc3c1)OCCCc1c(C(=O)O)n(C)c3c(c(Cl)ccc13)-c1c(nn3c1CCC3)CSC2"
observation_type = "IC50"
result_number = 14.6

[[record]]
structure = "Cc1c(C(=O)O)n2c3ccc(Cl)c(c13)-c1c(nn3c1COCC3)CN(CCNS(C)(=O)=O)Cc1cc(n(C)n1)CSc1cc(c3ccc(F)cc3c1)OCCC2"
observation_type = "IC50"
result_number = 17


1: C[C@@H]1[C@@H](C)S(=O)(=O)NC(=O)c2ccc3c(c2)N(C[C@@H]2CC[C@H]2[C@@H](OCc2nccn2C)C2=C[C@H]1C2)C[C@@]1(CCCc2c1ccc(Cl)c2F)CO3
2: C[C@@H]1[C@@H](C)S(=O)(=O)NC(=O)c2ccc3c(c2)N(C[C@@H]2CC[C@H]2[C@@H](OCCN2CCN(S(C)(=O)=O)CC2)C2=C[C@H]1C2)C[C@@]1(CCCc2c1ccc(Cl)c2F)CO3
Query: // which entry reports the smaller IC50, 1 or 2 ? Which one? Tell me its label.
Reply: 1
(1: 13 nM, 2: 21 nM)

----------
pIC50: −log10 of the molar value.
Compiled literature pIC50, tested on UniProt:Q07820.
OBSERVATION_TYPE: pIC50

# annotated cases, reported pIC50 shown
[[record]]
compound = "CCOCCN1CC(=O)NCc2ccccc2C(=O)N[C@@H](Cc2ccc(Cl)c(Cl)c2)C(=O)N(CCc2ccc(F)cc2)CC1=O"
subject_of_test = "UniProt:Q07820"
result_number = 4.39

[[record]]
compound = "Cn1nc2cc1CSc1cc(c3ccccc3c1)OCCCc1c(C(=O)O)n(C)c3c(c(Cl)ccc13)-c1c(nn3c1CSCC3)CSC2"
subject_of_test = "UniProt:Q07820"
result_number = 7.80

[[record]]
compound = "C[C@@H]1[C@@H](C)S(=O)(=O)NC(=O)c2ccc3c(c2)N(C[C@@H]2CC[C@H]2[C@@H](N2CCOCC2)C2=C[C@H]1C2)C[C@@]1(CCCc2c1ccc(Cl)c2F)CO3 (single isomer, unassigned)"
subject_of_test = "UniProt:Q07820"
result_number = 8.11


a: C[C@@H]1[C@@H](C)S(=O)(=O)NC(=O)c2ccc3c(c2)N(C[C@@H]2CC[C@H]2[C@@H](OCCN2C[C@@H](C)O[C@@H](C)C2)C2=C[C@H]1C2)C[C@@]1(CCCc2c1ccc(Cl)c2F)CO3
b: Cc1c(C(=O)O)n2c3ccc(F)c(c13)-c1c(nn(C)c1C)CSCc1cc(n(C)n1)CSc1cc(c3ccc(F)cc3c1)OCCC2
Query: // which entry reports the smaller pIC50, a or b ? Which one? Tell me its label.
Reply: a

P: Cc1c(C(=O)O)n2c3ccc(Cl)c(c13)-c1c(nn3c1COCC3)CSCc1cc(n(C)n1)CSc1cc(c3ccccc3c1)OCCC2
Q: COc1cccc(CCN2CC(=O)N[C@H]3CC[C@H](CC3)CC(=O)N(CCc3ccc(C(F)(F)F)cc3)CC(=O)N(Cc3ccc(Cl)c(Cl)c3)CC2=O)c1
Query: // which entry reports the smaller pIC50, P or Q ? Which one? Tell me its label.
Reply: Q
(Q: 4.55, P: 8.15)
